// provenance: PubChem BioAssay (NCI)

system: HCC-2998 colon; assay: NCI-60 one-dose screen, 48 h (100 = growth as untreated, 0 = no growth, -100 = all killed); conditions: 10 µM
About 83,000 compounds went through this panel and 20% of them were active in at least one assay; those are over-represented in the sample as a whole.
REPORTED_METRIC: growth (%)
Give a bare numeral; the unit % is implied.

## Input Read off the recorded growth for Oc1ccc2c(c1)OCC1(O)Cc3cc(O)c(O)cc3C21 (stereo unspecified)
## Output 64.8

## Input Output measured growth for this item: O=c1cc(-c2ccccc2)nc2cc(-c3ccco3)[nH]n12
## Output 91.7

## Input Fill in reported growth for this entry: CCN(CC)C(=O)/C=C(/C)c1ccccc1
## Output 88.6

## Input Give the reported growth for this compound. O=[N+]([O-])c1ccc(Cl)c(S(=O)(=O)O)c1
## Output 102

## Input Report measured growth; entry is CC(=O)c1sc2c(c1OC(=O)c1ccc(Cl)cc1Cl)c(=O)n(-c1ccccc1)c(=S)n2-c1ccccc1
## Output 24.6

## Input Using the record for COC(=O)c1ccc(C(C)C)cc1 , state its measured growth.
## Output 101
